- Tested on: NCI/ADR-RES ovarian
- assay method text: NCI tumour cell line growth inhibition, 48 h
parameter measured: TGI

As a guide, the following entries are already answered.
{"compound": "CCO/C=N/C1=C(C#N)C(c2ccc(Cl)cc2)c2c(-c3ccccc3)nn(-c3ccccc3)c2O1 (stereo unspecified)", "TGI": "> 85.4 µM"}
{"compound": "COc1c(C)c(C/C=C(\\C)CCCCO)c(OC)c(OC)c1OC", "TGI": "> 100 µM"}
{"compound": "COCOCC1CCCN1CN1CCC[C@H]1COCOC (stereo partly specified)", "TGI": "> 100 µM"}
{"compound": "COc1cccc(-n2ncc3c(N/N=C/c4ccc(S(C)(=O)=O)cc4)ncnc32)c1", "TGI": "> 25 µM"}
{"compound": "N#Cc1cccc(/C=C(/C(=O)c2ccccc2)c2ccccc2)c1", "TGI": "> 100 µM"}

Could you please provide reported TGI for CCN(CC)CCn1c2cc3c(cc2c(=O)c2cccnc21)OCO3 ? Thanks!
> 10 µM

Could you please provide reported TGI for O=C(NC(=S)NNC(=S)NNc1ccccc1)c1ccccc1 ? Thanks!
> 100 µM

Could you please provide reported TGI for CC1=CC2=C(C(N)=O)C(=O)OC2(C)C(c2ccccc2)C1 (stereo unspecified) ? Thanks!
> 100 µM

Reference source for all entries: PubChem BioAssay (NCI)
